system: Plasmodium falciparum; assay: Antiplasmodial activity against chloroquine-resistant Plasmodium falciparum W2 infected in red blood cells after 72 hrs by parasitic LDH assay; type: functional, organism-based; details: W2, 72 h
compounds and their reported IC50
Write the numeric value and append its unit.

Cc1cc(Cl)nc(NCCNc2ccnc3cc(Cl)ccc23)n1 = 810 nM
CCN1CCN(c2nc(C)cc(NCCCNc3ccnc4cc(Cl)ccc34)n2)CC1 = 60 nM

Tell me its IC50 given Cc1cc(NCCCCCCNc2ccnc3cc(Cl)ccc23)nc(N2CCN(C)CC2)n1 as the entry. 16 nM

Fill in reported IC50 for this entry: Cc1cc(NCCNc2ccnc3cc(Cl)ccc23)nc(N2CCOCC2)n1 140 nM

Return IC50 (reported value) for this compound: Cc1cc(Cl)nc(NCCCCNc2ccnc3cc(Cl)ccc23)n1 640 nM

Retrieve IC50 measured for Cc1cc(Cl)nc(NCCCCCCNc2ccnc3cc(Cl)ccc23)n1 and print it. 580 nM

---

experiment: Selectivity index, ratio of IC50 for african green monkey Vero cells to IC50 for chloroquine-resistant Plasmodium falciparum W2; format: toxicity, cell-based; settings: read-out: Ratio IC50
recorded.metric: selectivity ratio
Kindly provide the number alone.

Example compounds with recorded selectivity ratio:
Cc1cc(Cl)nc(NCCCCCCNc2ccnc3cc(Cl)ccc23)n1 = 85.2
Cc1cc(NCCCCCCNc2ccnc3cc(Cl)ccc23)nc(Cl)n1 = 60.6

Let us move to another entry and its selectivity ratio.
Given the compound CCN1CCN(c2nc(C)cc(NCCCCNc3ccnc4cc(Cl)ccc34)n2)CC1 , write its reported selectivity ratio. 1620

---

tested on: Vero; test: Cytotoxicity against african green monkey Vero cells after 48 hrs by neutral red assay; format: cell-based; conditions: chlorocebus sabaeus
# IC50 per entry
State just the number; it will be interpreted in µM.

Recorded IC50, per entry:
Cc1cc(NCCCCCCNc2ccnc3cc(Cl)ccc23)nc(N2CCN(C)CC2)n1 = 10.4
Cc1cc(NCCCCCCNc2ccnc3cc(Cl)ccc23)nc(N2CCCCC2)n1 = 8.8
Cc1cc(Cl)nc(NCCCCCCNc2ccnc3cc(Cl)ccc23)n1 = 49.4
CCN1CCN(c2nc(C)cc(NCCCCNc3ccnc4cc(Cl)ccc34)n2)CC1 = 32.4
COc1cccc2c1C(=O)c1c(O)c3c(c(O)c1C2=O)C[C@@](O)(C(=O)CO)C[C@@H]3O[C@H]1C[C@H](N)[C@H](O)[C@H](C)O1 = 8.6
Cc1cc(Cl)nc(NCCNc2ccnc3cc(Cl)ccc23)n1 = 43
Cc1cc(NCCCCCCNc2ccnc3cc(Cl)ccc23)nc(Cl)n1 = 32.7
Cc1cc(NCCCCCCNc2ccnc3cc(Cl)ccc23)nc(N2CCOCC2)n1 = 15.1

// Input: CCc1nc(N)nc(N)c1-c1ccc(Cl)cc1 . Output its IC50 only. 18.2

---

system: HepG2; test: Cytotoxicity against human HepG2 cells after 48 hrs by neutral red assay; format: cell-based; conditions: HepG2, 48 h
Note to self: IC50 under 9 µM means MET, ties and anything higher get NOT MET.

Reference set (3 entries):
Cc1cc(NCCCCCCNc2ccnc3cc(Cl)ccc23)nc(N2CCOCC2)n1 = MET
CCN1CCN(c2nc(C)cc(NCCCCNc3ccnc4cc(Cl)ccc34)n2)CC1 = NOT MET
Cc1cc(Cl)nc(NCCCCCCNc2ccnc3cc(Cl)ccc23)n1 = MET

Here's an entry: Cc1cc(NCCCNc2ccnc3cc(Cl)ccc23)nc(N2CCOCC2)n1 . Is its IC50 below 9 µM? NOT MET

Criterion: IC50 strictly below 9 µM. Is it met by Cc1cc(Cl)nc(NCCCCNc2ccnc3cc(Cl)ccc23)n1 ? NOT MET

Strictly below 9 µM in IC50? Cc1cc(NCCCNc2ccnc3cc(Cl)ccc23)nc(N2CCN(C)CC2)n1 NOT MET

---

tested on: Plasmodium falciparum; experiment: Antiplasmodial activity against chloroquine-resistant Plasmodium falciparum W2 infected in red blood cells after 72 hrs by parasitic LDH assay; format: functional, organism-based; conditions: W2, 72 h
recorded.metric: pIC50
pIC50 is a log-scale quantity: -log10 of the concentration expressed in molar.

Cc1cc(NCCCCNc2ccnc3cc(Cl)ccc23)nc(N2CCCCC2)n1 = 7.05
Cc1cc(NCCCCNc2ccnc3cc(Cl)ccc23)nc(N2CCN(C)CC2)n1 = 7.70
Cc1cc(NCCCNc2ccnc3cc(Cl)ccc23)nc(N2CCCCC2)n1 = 6.68

Find the measured pIC50 of Cc1cc(NCCCNc2ccnc3cc(Cl)ccc23)nc(Cl)n1 and report it. 6.15

Tell me its pIC50 given Cc1cc(NCCCNc2ccnc3cc(Cl)ccc23)nc(N2CCN(C)CC2)n1 as the entry. 7.22

---

assay: Selectivity index, ratio of IC50 for african green monkey Vero cells to IC50 for chloroquine-resistant Plasmodium falciparum W2; format: toxicity, cell-based; details: read-out: Ratio IC50
recorded.metric: selectivity ratio

Cc1cc(Cl)nc(NCCCCNc2ccnc3cc(Cl)ccc23)n1 = > 94
Cc1cc(NCCNc2ccnc3cc(Cl)ccc23)nc(Cl)n1 = > 120

Report selectivity ratio, nothing else, for this molecule: Cc1cc(NCCCCNc2ccnc3cc(Cl)ccc23)nc(Cl)n1 > 88
